Biological target: human GABAA α5β3γ2s receptor (Homo sapiens, UniProt P18507+P31644)
Sequence (P18507 1-475): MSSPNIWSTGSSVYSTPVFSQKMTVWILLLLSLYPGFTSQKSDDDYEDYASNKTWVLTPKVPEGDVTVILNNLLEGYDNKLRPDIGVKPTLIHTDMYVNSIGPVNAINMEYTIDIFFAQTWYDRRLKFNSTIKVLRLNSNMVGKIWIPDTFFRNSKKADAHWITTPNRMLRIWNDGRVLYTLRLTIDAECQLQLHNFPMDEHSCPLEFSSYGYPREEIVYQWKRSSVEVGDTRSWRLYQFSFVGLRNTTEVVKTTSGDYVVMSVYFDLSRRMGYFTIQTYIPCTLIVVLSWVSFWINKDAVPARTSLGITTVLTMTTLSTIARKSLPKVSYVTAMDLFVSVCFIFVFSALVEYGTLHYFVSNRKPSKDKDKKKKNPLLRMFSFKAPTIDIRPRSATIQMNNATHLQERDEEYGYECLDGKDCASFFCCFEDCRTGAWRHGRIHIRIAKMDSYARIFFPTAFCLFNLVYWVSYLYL
Sequence (P31644 1-462): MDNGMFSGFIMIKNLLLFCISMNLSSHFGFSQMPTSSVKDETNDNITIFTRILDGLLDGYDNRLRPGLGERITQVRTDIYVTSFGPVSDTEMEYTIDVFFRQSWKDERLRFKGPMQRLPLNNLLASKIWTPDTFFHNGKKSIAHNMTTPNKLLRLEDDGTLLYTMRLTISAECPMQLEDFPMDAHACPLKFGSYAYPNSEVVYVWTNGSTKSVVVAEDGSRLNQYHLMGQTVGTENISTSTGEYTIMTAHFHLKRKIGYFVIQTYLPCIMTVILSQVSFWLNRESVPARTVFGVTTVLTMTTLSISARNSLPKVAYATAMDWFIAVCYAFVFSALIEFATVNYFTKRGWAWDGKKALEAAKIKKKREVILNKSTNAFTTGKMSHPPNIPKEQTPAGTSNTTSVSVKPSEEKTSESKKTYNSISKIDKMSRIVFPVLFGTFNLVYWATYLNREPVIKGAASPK
Experiment: Assay A: in vitro inhibition of 3H-flumazenil binding, HEK cells expressing the human GABAA α5β3γ2s receptor
Conditions: read-out: Assay A: GABAA α 5 β 3 γ 2s Ki
Description: Cell Cultures and Membrane Preparation […] Non-specific binding is determined using clonazepam ([…]). […] The amount of radioactivity on the filters is determined by conventional liquid scintillation counting using a […] The IC50 value for a test compound is determined based on the equation: […] The Ki value for a test compound can be calculated from the IC50 value using the equation by Cheng and Prusoff: […]
Catalogue of compounds with associated Ki
A number alone suffices; assume nM.

Use the examples below as a reference point.
>>> obs_value("Cn1nnc(-c2ccc(C(F)F)cn2)c1COc1ccc(-n2cc(C#N)cn2)nn1")
25
>>> obs_value("Cc1nnn(-c2ccc(C(F)F)cn2)c1COc1ccc(-c2cnc(N)nc2)nn1")
15
>>> obs_value("Cc1nnn(-c2ccc(C(F)F)cn2)c1COc1ccc(-c2cncc(C#N)c2)nn1")
6

From here, focus on the item given below.
Short answer for "Cn1nnc(-c2ccc(C(F)F)cn2)c1COc1ccc(-c2ccc(N)nc2)nn1" : Ki was 23

* * *

Assay: Metabolic stability in human liver microsomes (Human MST)
Type: in vitro ADME
Details: pH 7.6, pooled human liver microsomes, 37° C., read-out: Human MST t½
Protocol: Assessment of Metabolic Stability in Human Liver Microsomes (Human MST) The metabolic stability of the compounds according to the invention may be investigated as follows: The metabolic degradation of the test compound is assayed at 37° C. with pooled human liver microsomes. […] The half-life (t1/2) is determined by the slope of the semi-logarithmic plot of the concentration-time profile.
Catalogue of compounds with associated half-life at 1 μM
A number alone suffices; assume h.

Use the examples below as a reference point.
>>> obs_value("Cc1c(-c2ccc(OCc3c(-c4ccc(C(F)F)cn4)nnn3C)nn2)cnn1C")
1.63
>>> obs_value("Cc1nnn(-c2ccc(C(F)F)cn2)c1COc1ccc(-c2cnn(C)c2C)nn1")
1.68
>>> obs_value("Cc1c(-c2ccc(OCc3c(-c4ccc(C(F)F)cn4)nnn3C)nn2)cc(C#N)n1C")
1.62

Short answer for "Cc1nnn(-c2ccc(C(F)F)cn2)c1COc1ccc(-n2cc(C#N)cn2)nn1" : half-life at 1 μM was 2.15
